biological target: human IL-6 (human, UniProt P05231 30-212); experiment: SPR Biacore, supernatant, Protein A capture, 37 C
Sequence (P05231 30-212 limits assumed): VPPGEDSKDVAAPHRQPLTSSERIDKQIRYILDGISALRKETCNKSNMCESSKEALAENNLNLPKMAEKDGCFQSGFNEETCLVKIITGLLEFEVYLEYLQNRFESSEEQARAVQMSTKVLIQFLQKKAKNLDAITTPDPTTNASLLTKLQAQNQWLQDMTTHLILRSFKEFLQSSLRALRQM
pKd: −log10 of the molar value.
Lab note: anything with pKd at or over 9 counts as label 1; the rest go in label 0.

Binder | Class Name
Anti-IL-6 antibody, heavy chain S35H, G66D / light chain WT (antibody, IgG1, V domains shown, IgG1; variable domains only) VH: EVQLVESGGGLVQPGGSLRLSCAASGFTFSPFAMHWVRQAPGKGLEWVAKISPGGSWTYYSDTVTDRFTFSLDTSKSTAYLQMNSLRAEDTAVYYCARQLWGYYALDIWGQGTLVTVSS VL: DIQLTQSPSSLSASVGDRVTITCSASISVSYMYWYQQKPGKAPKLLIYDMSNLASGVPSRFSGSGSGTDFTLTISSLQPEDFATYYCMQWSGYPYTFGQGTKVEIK | label 1
Anti-IL-6 antibody, heavy chain S35H, G66D / light chain M32L, M50D, N52S, M88Q (antibody, IgG1, V domains shown, IgG1; variable domains only; VL is variant III) VH: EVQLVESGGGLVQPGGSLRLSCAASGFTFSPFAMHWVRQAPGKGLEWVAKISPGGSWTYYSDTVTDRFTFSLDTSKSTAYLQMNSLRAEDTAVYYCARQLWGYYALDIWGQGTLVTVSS VL: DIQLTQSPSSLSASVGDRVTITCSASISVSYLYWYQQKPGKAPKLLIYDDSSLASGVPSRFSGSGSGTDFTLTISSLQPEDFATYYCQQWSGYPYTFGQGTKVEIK | label 1
Anti-IL-6 antibody, heavy chain S35H, G66D, L100P / light chain M32L, M50D, N52S, M88Q (antibody, IgG1, V domains shown, IgG1; variable domains only; VL is variant III) VH: EVQLVESGGGLVQPGGSLRLSCAASGFTFSPFAMHWVRQAPGKGLEWVAKISPGGSWTYYSDTVTDRFTFSLDTSKSTAYLQMNSLRAEDTAVYYCARQPWGYYALDIWGQGTLVTVSS VL: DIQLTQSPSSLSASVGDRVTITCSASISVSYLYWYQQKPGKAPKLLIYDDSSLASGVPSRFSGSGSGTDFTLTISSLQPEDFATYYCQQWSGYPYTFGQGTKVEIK | label 0
Anti-IL-6 antibody, heavy chain S35H, G66D, L100Q / light chain WT (antibody, IgG1, V domains shown, IgG1; variable domains only) VH: EVQLVESGGGLVQPGGSLRLSCAASGFTFSPFAMHWVRQAPGKGLEWVAKISPGGSWTYYSDTVTDRFTFSLDTSKSTAYLQMNSLRAEDTAVYYCARQQWGYYALDIWGQGTLVTVSS VL: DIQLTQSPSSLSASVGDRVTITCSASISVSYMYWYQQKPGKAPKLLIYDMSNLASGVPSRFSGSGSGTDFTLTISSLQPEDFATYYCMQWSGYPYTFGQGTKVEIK | label 1
